Cited source: ChEMBL document CHEMBL4725408

assay: Protein binding in human plasma assessed as unbound fraction at 10 uM measured after 16 hrs by LC-MS/MS based equilibrium dialysis method; format: ADME, cell-free
measurement label: fraction unbound at 16 h, 10 µM

compound	measurement label	relation sign	test value
C[C@@H]1CN2c3c(cc4c(-n5ncnc5NC[C@@H](C)O)noc4c3F)CC3(C(=O)NC(=O)NC3=O)[C@H]2[C@H](C)O1	fraction unbound at 16 h, 10 µM	=	0.13
C[C@@H]1CN2c3c(cc4c(-n5ccnc5)noc4c3F)CC3(C(=O)NC(=O)NC3=O)[C@H]2[C@H](C)O1 (racemic)	fraction unbound at 16 h, 10 µM	=	0.031
C[C@@H]1CN2c3c(cc4c(-n5ncnc5C#N)noc4c3F)CC3(C(=O)NC(=O)NC3=O)[C@H]2[C@H](C)O1	fraction unbound at 16 h, 10 µM	=	0.076
C[C@@H]1CN2c3c(cc4c(-n5ncnc5N)noc4c3F)CC3(C(=O)NC(=O)NC3=O)[C@H]2[C@H](C)O1	fraction unbound at 16 h, 10 µM	=	0.11
C[C@H](O)CNc1ncnn1-c1noc2c(F)c3c(cc12)CC1(C(=O)NC(=O)NC1=O)[C@H]1[C@H](C)O[C@H](C)CN31	fraction unbound at 16 h, 10 µM	=	0.12
C[C@@H]1CN2c3c(cc4c(-n5cc(C#N)cn5)noc4c3F)CC3(C(=O)NC(=O)NC3=O)[C@H]2[C@H](C)O1	fraction unbound at 16 h, 10 µM	=	0.044
C[C@@H]1CN2c3c(cc4c(-n5ncnc5NCCN(C)C)noc4c3F)CC3(C(=O)NC(=O)NC3=O)[C@H]2[C@H](C)O1	fraction unbound at 16 h, 10 µM	=	0.53
C[C@@H]1CN2c3c(cc4c(-n5ncnc5NCCO)noc4c3F)CC3(C(=O)NC(=O)NC3=O)[C@H]2[C@H](C)O1	fraction unbound at 16 h, 10 µM	=	0.14
C[C@@H]1CN2c3c(cc4c(-n5ncnc5N(C)C)noc4c3F)CC3(C(=O)NC(=O)NC3=O)[C@H]2[C@H](C)O1	fraction unbound at 16 h, 10 µM	=	0.13
COCCOc1ncnn1-c1noc2c(F)c3c(cc12)CC1(C(=O)NC(=O)NC1=O)[C@H]1[C@H](C)O[C@H](C)CN31	fraction unbound at 16 h, 10 µM	=	0.12
COc1ncnn1-c1noc2c(F)c3c(cc12)CC1(C(=O)NC(=O)NC1=O)[C@H]1[C@H](C)O[C@H](C)CN31	fraction unbound at 16 h, 10 µM	=	0.14
Cc1ncn(-c2noc3c(F)c4c(cc23)CC2(C(=O)NC(=O)NC2=O)[C@H]2[C@H](C)O[C@H](C)CN42)n1	fraction unbound at 16 h, 10 µM	=	0.053
CNS(=O)(=O)c1cnn(-c2noc3c(F)c4c(cc23)CC2(C(=O)NC(=O)NC2=O)[C@H]2[C@H](C)O[C@H](C)CN42)c1	fraction unbound at 16 h, 10 µM	=	0.068
C[C@@H]1CN2c3c(cc4c(-n5ncnc5CN(C)C)noc4c3F)CC3(C(=O)NC(=O)NC3=O)[C@H]2[C@H](C)O1	fraction unbound at 16 h, 10 µM	=	0.18
C[C@@H]1CN2c3c(cc4c(-n5ccnn5)noc4c3F)CC3(C(=O)NC(=O)NC3=O)[C@H]2[C@H](C)O1	fraction unbound at 16 h, 10 µM	=	0.054
C[C@@H]1CN2c3c(cc4c(-n5nccn5)noc4c3F)CC3(C(=O)NC(=O)NC3=O)[C@H]2[C@H](C)O1	fraction unbound at 16 h, 10 µM	=	0.031
C[C@@H]1CN2c3c(cc4c(-n5ncnc5CO)noc4c3F)CC3(C(=O)NC(=O)NC3=O)[C@H]2[C@H](C)O1	fraction unbound at 16 h, 10 µM	=	0.17
C[C@@H]1CN2c3c(cc4c(-n5cccn5)noc4c3F)CC3(C(=O)NC(=O)NC3=O)[C@H]2[C@H](C)O1 (racemic)	fraction unbound at 16 h, 10 µM	<	0.01
C[C@@H]1CN2c3c(cc4c(-n5ncnc5NCCN5CCOCC5)noc4c3F)CC3(C(=O)NC(=O)NC3=O)[C@H]2[C@H](C)O1	fraction unbound at 16 h, 10 µM	=	0.11
C[C@@H]1CN2c3c(cc4c(-n5cnnc5)noc4c3F)CC3(C(=O)NC(=O)NC3=O)[C@H]2[C@H](C)O1	fraction unbound at 16 h, 10 µM	=	0.34
COCc1ncnn1-c1noc2c(F)c3c(cc12)CC1(C(=O)NC(=O)NC1=O)[C@H]1[C@H](C)O[C@H](C)CN31	fraction unbound at 16 h, 10 µM	=	0.14
C[C@@H]1CN2c3c(cc4c(-n5ncnc5NCC(=O)N5CC[C@@H](N(C)C)C5)noc4c3F)CC3(C(=O)NC(=O)NC3=O)[C@H]2[C@H](C)O1	fraction unbound at 16 h, 10 µM	=	0.26
C[C@@H]1CN2c3c(cc4c(-n5ncnc5N5CCOCC5)noc4c3F)CC3(C(=O)NC(=O)NC3=O)[C@H]2[C@H](C)O1	fraction unbound at 16 h, 10 µM	=	0.17
CCNc1ncnn1-c1noc2c(F)c3c(cc12)CC1(C(=O)NC(=O)NC1=O)[C@H]1[C@H](C)O[C@H](C)CN31	fraction unbound at 16 h, 10 µM	=	0.037
CNc1ncnn1-c1noc2c(F)c3c(cc12)CC1(C(=O)NC(=O)NC1=O)[C@H]1[C@H](C)O[C@H](C)CN31	fraction unbound at 16 h, 10 µM	=	0.08
C[C@@H]1CN2c3c(cc4c(-n5ncnc5NCC(=O)N5CC[C@H](N(C)C)C5)noc4c3F)CC3(C(=O)NC(=O)NC3=O)[C@H]2[C@H](C)O1	fraction unbound at 16 h, 10 µM	=	0.26
C[C@@H]1CN2c3c(cc4c(-n5cncn5)noc4c3Cl)CC3(C(=O)NC(=O)NC3=O)[C@H]2[C@H](C)O1	fraction unbound at 16 h, 10 µM	=	0.074
Cc1ncnn1-c1noc2c(F)c3c(cc12)CC1(C(=O)NC(=O)NC1=O)[C@H]1[C@H](C)O[C@H](C)CN31	fraction unbound at 16 h, 10 µM	=	0.098
C[C@@H]1CN2c3c(cc4c(-n5cncn5)noc4c3F)CC3(C(=O)NC(=O)NC3=O)[C@H]2[C@H](C)O1	fraction unbound at 16 h, 10 µM	=	0.13
